The reported measurements were obtained from patent US20240408169A1.

- Tested on: OVCAR3 cells
- ASSAY EXPLANATION: MTT proliferation assay, OVCAR3
- Assay type: cell-based
- CONDITION LABEL: 5 days compound exposure, 1:3 serial dilution starting at 10 μM
*1 amine or outer side, *2 acyl side, *3 side chain or, on linkers, in order; H or OH if unused. Where a SMILES comes first, the peptide text is derived from it. Bridges are numbered along the chain shown (N, C = ends). [ ]: non-standard residue; d: D form. The star is where a group is joined. NMeAla(5-Cl-2-cPrO-3-pyridyl) = CN[C@@H](Cc1cc(Cl)cnc1OC1CC1)C(=O)O; X32 = CN([C@@H](Cc1cc(Cl)ccc1-c1ccc(N2CCOCC2=O)cc1)C(=O)[*:2])[*:1]; X46 = CN([C@@H](Cc1cc(Cl)ccc1-c1ccc(S(C)(=O)=O)cc1)C(=O)[*:2])[*:1]; X24 = CN([C@@H](Cc1cc(Cl)ccc1-c1cnn(C(C)(C)C)c1)C(=O)[*:2])[*:1]; NMehhhLys(Me) = CN([C@@H](CCCCCCCN(C)[*:3])C(=O)[*:2])[*:1]; X176 = CN([C@@H](Cc1cc(F)ccc1-c1cccnc1)C(=O)[*:2])[*:1]; NMe(hhhLys) = CN([C@@H](CCCCCCCN[*:3])C(=O)[*:2])[*:1]; NMe3Pal(2-OMe,5-Cl) = CN[C@@H](Cc1cc(Cl)cnc1OC)C(=O)O; Cyclobutanecarbonyl(1-CF3) = O=C(C1(C(F)(F)F)CCC1)*; cBuCO(3,3-F2-1-CF3) = O=C(C1(C(F)(F)F)CC(F)(F)C1)*; X25 = CCOc1ncc(Cl)cc1C[C@@H](C(=O)[*:2])N(C)[*:1]; Pro(trans-4-F) = O=C(O)[C@@H]1C[C@@H](F)CN1; Pivaloyl(3,3,3-F3) = CC(C)(C(=O)*)C(F)(F)F; Gly(cPr) = N[C@H](C(=O)O)C1CC1
ASSAY METRIC: GI50 (nM)
Give just the numeric value; nM need not be written.

Consider the following illustrative entries.
{"COMPOUND": "CC(C)C[C@@H]1NC(=O)[C@@H](N(C)C(=O)[C@@H](NC(=O)[C@@H]2C[C@@H](F)CN2C(=O)C2(C(F)(F)F)CCC2)C2CC2)CC=CCCCCN(C)C(=O)[C@H](Cc2cc(Cl)ccc2Cl)N(C)C1=O", "ASSAY METRIC": "GI50", "UNITS SYMBOL": "nM", "OBSERVED MEASUREMENT": 50}
{"COMPOUND": "CC(C)C[C@@H]1NC(=O)[C@@H](N(C)C(=O)[C@@H](NC(=O)[C@@H]2C[C@@H](F)CN2C(=O)C2(C(F)(F)F)CC(F)(F)C2)C2CC2)CCCCCCCN(C)C(=O)[C@H](Cc2cc(Cl)ccc2-c2cnn(C(C)(C)C)c2)N(C)C1=O [Example 187] ({cBuCO(3,3-F2-1-CF3)}-[Pro(trans-4-F)][Gly(cPr)][NMehhhLys(Me)]L[X24]; lactam 3-C)", "ASSAY METRIC": "GI50", "UNITS SYMBOL": "nM", "OBSERVED MEASUREMENT": 10}
{"COMPOUND": "CC(C)C[C@@H]1NC(=O)[C@@H](N(C)C(=O)[C@@H](NC(=O)[C@@H]2C[C@@H](F)CN2C(=O)C2(C(F)(F)F)CC(F)(F)C2)C2CC2)CCCCCCCN(C)C(=O)[C@H](Cc2cc(Cl)ccc2-c2ccc(S(C)(=O)=O)cc2)N(C)C1=O [Example 262] ({cBuCO(3,3-F2-1-CF3)}-[Pro(trans-4-F)][Gly(cPr)][NMehhhLys(Me)]L[X46]; lactam 3-C)", "ASSAY METRIC": "GI50", "UNITS SYMBOL": "nM", "OBSERVED MEASUREMENT": 20}
{"COMPOUND": "CC(C)C[C@@H]1NC(=O)[C@@H](N(C)C(=O)[C@@H](NC(=O)[C@@H]2C[C@@H](F)CN2C(=O)C2(C(F)(F)F)CC(F)(F)C2)C2CC2)CCCCCCCN(C)C(=O)[C@H](Cc2cc(F)ccc2-c2cccnc2)N(C)C1=O [Example 271] ({cBuCO(3,3-F2-1-CF3)}-[Pro(trans-4-F)][Gly(cPr)][NMehhhLys(Me)]L[X176]; lactam 3-C)", "ASSAY METRIC": "GI50", "UNITS SYMBOL": "nM", "OBSERVED MEASUREMENT": 10}
{"COMPOUND": "CCOc1ncc(Cl)cc1C[C@H]1C(=O)N(C)CCCCCCC[C@H](N(C)C(=O)[C@@H](NC(=O)[C@@H]2C[C@@H](F)CN2C(=O)C(C)(C)C(F)(F)F)C2CC2)C(=O)N[C@@H](CC(C)C)C(=O)N1C [Example 269] ({Pivaloyl(3,3,3-F3)}-[Pro(trans-4-F)][Gly(cPr)][NMehhhLys(Me)]L[X25]; lactam 3-C)", "ASSAY METRIC": "GI50", "UNITS SYMBOL": "nM", "OBSERVED MEASUREMENT": 30}
{"COMPOUND": "CC(C)C[C@@H]1NC(=O)[C@@H](N(C)C(=O)[C@H](C)NC(=O)[C@@H]2C[C@@H](F)CN2C(=O)C2(C(F)(F)F)CC(F)(F)C2)CC=CCCCCNC(=O)[C@H](Cc2cc(Cl)ccc2Cl)N(C)C1=O", "ASSAY METRIC": "GI50", "UNITS SYMBOL": "nM", "OBSERVED MEASUREMENT": 700}
{"COMPOUND": "CC(C)C[C@@H]1NC(=O)[C@@H](N(C)C(=O)[C@@H](NC(=O)[C@@H]2C[C@@H](F)CN2C(=O)C2(C(F)(F)F)CC(F)(F)C2)C2CC2)CC=CCCCCNC(=O)[C@H](Cc2cc(Cl)ccc2-c2cccc(Cl)c2)N(C)C1=O", "ASSAY METRIC": "GI50", "UNITS SYMBOL": "nM", "OBSERVED MEASUREMENT": 1760}
{"COMPOUND": "CC(C)C[C@@H]1NC(=O)[C@@H](N(C)C(=O)[C@@H](NC(=O)[C@@H]2C[C@@H](F)CN2C(=O)C2(C(F)(F)F)CC(F)(F)C2)C2CC2)CCCCCCCNC(=O)[C@H](Cc2cc(Cl)cnc2OC2CC2)N(C)C1=O [Example 103] ({cBuCO(3,3-F2-1-CF3)}-[Pro(trans-4-F)][Gly(cPr)][NMe(hhhLys)]L[NMeAla(5-Cl-2-cPrO-3-pyridyl)]; lactam 3-C)", "ASSAY METRIC": "GI50", "UNITS SYMBOL": "nM", "OBSERVED MEASUREMENT": 50}

Measured GI50, COc1ncc(Cl)cc1C[C@H]1C(=O)NCCCCCCC[C@H](N(C)C(=O)[C@@H](NC(=O)[C@@H]2C[C@@H](F)CN2C(=O)C2(C(F)(F)F)CC(F)(F)C2)C2CC2)C(=O)N[C@@H](CC(C)C)C(=O)N1C [Example 275] ({cBuCO(3,3-F2-1-CF3)}-[Pro(trans-4-F)][Gly(cPr)][NMe(hhhLys)]L[NMe3Pal(2-OMe,5-Cl)]; lactam 3-C) : 10

Measured GI50, CC(C)C[C@@H]1NC(=O)[C@@H](N(C)C(=O)[C@@H](NC(=O)[C@@H]2C[C@@H](F)CN2C(=O)C2(C(F)(F)F)CC(F)(F)C2)C2CC2)CCCCCCCN(C)C(=O)[C@H](Cc2cc(Cl)ccc2-c2ccc(N3CCOCC3=O)cc2)N(C)C1=O [Example 408] ({cBuCO(3,3-F2-1-CF3)}-[Pro(trans-4-F)][Gly(cPr)][NMehhhLys(Me)]L[X32]; lactam 3-C) : 10

Measured GI50, CC(C)C[C@@H]1NC(=O)[C@@H](N(C)C(=O)[C@@H](NC(=O)[C@@H]2C[C@@H](F)CN2C(=O)C2(C(F)(F)F)CC(F)(F)C2)C2CC2)CC=CCCCCN(C)C(=O)[C@H](Cc2cc(Cl)ccc2-c2cnn(C)c2)N(C)C1=O : 70

Measured GI50, COc1ncc(Cl)cc1C[C@H]1C(=O)N(C)CCCCCCC[C@H](N(C)C(=O)[C@@H](NC(=O)[C@@H]2C[C@@H](F)CN2C(=O)C2(C(F)(F)F)CCC2)C2CC2)C(=O)N[C@@H](CC(C)C)C(=O)N1C [Example 224] ({Cyclobutanecarbonyl(1-CF3)}-[Pro(trans-4-F)][Gly(cPr)][NMehhhLys(Me)]L[NMe3Pal(2-OMe,5-Cl)]; lactam 3-C) : 10

* * *

// GI50 lookup, one value per entry
- System: OVCAR3 cells
- ASSAY EXPLANATION: MTT proliferation assay, OVCAR3;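 note: compound given as an 8- or 10-point series, one day after plating, with exposure covering roughly 3-4 cell doublings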
- Assay type: cell-based
- CONDITION LABEL: 5 days compound exposure, 1:3 serial dilution starting at 10 μM
*1 amine or outer side, *2 acyl side, *3 side chain or, on linkers, in order; H or OH if unused. Where a SMILES comes first, the peptide text is derived from it. Bridges are numbered along the chain shown (N, C = ends). [ ]: non-standard residue; d: D form. The star is where a group is joined. X127 = CN([C@@H](Cc1cc(F)ccc1-c1cnn(S(=O)(=O)C2CC2)c1)C(=O)[*:2])[*:1]; NMehhhLys(Me) = CN([C@@H](CCCCCCCN(C)[*:3])C(=O)[*:2])[*:1]; NMe(hhhLys) = CN([C@@H](CCCCCCCN[*:3])C(=O)[*:2])[*:1]; cBuCO(3,3-F2-1-CF3) = O=C(C1(C(F)(F)F)CC(F)(F)C1)*; NMePhe(2,5-Cl2) = CN[C@@H](Cc1cc(Cl)ccc1Cl)C(=O)O; Pro(trans-4-F) = O=C(O)[C@@H]1C[C@@H](F)CN1; X155 = C[C@@](O)(C(=O)*)C(F)(F)F; Gly(cPr) = N[C@H](C(=O)O)C1CC1
Give just the numeric value; nM need not be written.

Consider the following illustrative entries.
{"COMPOUND": "CC(C)C[C@@H]1NC(=O)[C@@H](N(C)C(=O)[C@@H](NC(=O)[C@@H]2C[C@@H](F)CN2C(=O)[C@@](C)(O)C(F)(F)F)C2CC2)CCCCCCCNC(=O)[C@H](Cc2cc(Cl)ccc2Cl)N(C)C1=O [Example 10] (X155-[Pro(trans-4-F)][Gly(cPr)][NMe(hhhLys)]L[NMePhe(2,5-Cl2)]; lactam 3-C)", "UNITS SYMBOL": "nM", "OBSERVED MEASUREMENT": 30}
{"COMPOUND": "CC(C)C[C@@H]1NC(=O)[C@@H](N(C)C(=O)[C@@H](NC(=O)[C@@H]2C[C@@H](F)CN2C(=O)C2(C(F)(F)F)CC(F)(F)C2)C2CC2)CCCCCCCN(C)C(=O)[C@H](Cc2cc(F)ccc2-c2cnn(S(=O)(=O)C3CC3)c2)N(C)C1=O [Example 252] ({cBuCO(3,3-F2-1-CF3)}-[Pro(trans-4-F)][Gly(cPr)][NMehhhLys(Me)]L[X127]; lactam 3-C)", "UNITS SYMBOL": "nM", "OBSERVED MEASUREMENT": 20}

Please find the next compound below.
Reported OVCAR3 cells GI50 for item CC(C)C[C@@H]1NC(=O)[C@@H](N(C)C(=O)[C@@H](NC(=O)[C@@H]2C[C@@H](F)CN2C(=O)C2(C(F)(F)F)CCC2)C2CC2)CC=CCCCCNC(=O)[C@H](Cc2cc(Cl)cnc2OC(C)C)N(C)C1=O (single isomer, unassigned) [Example 136-P1] was 1770
